Attribution: patent US20210246166A1

- target_or_system: T1, Recombinant human MASP1 enzyme (fragment corresponding to amino acids 297-699, C-terminal His Tag) (human, UniProt P48740 297-699)
- T1 sequence: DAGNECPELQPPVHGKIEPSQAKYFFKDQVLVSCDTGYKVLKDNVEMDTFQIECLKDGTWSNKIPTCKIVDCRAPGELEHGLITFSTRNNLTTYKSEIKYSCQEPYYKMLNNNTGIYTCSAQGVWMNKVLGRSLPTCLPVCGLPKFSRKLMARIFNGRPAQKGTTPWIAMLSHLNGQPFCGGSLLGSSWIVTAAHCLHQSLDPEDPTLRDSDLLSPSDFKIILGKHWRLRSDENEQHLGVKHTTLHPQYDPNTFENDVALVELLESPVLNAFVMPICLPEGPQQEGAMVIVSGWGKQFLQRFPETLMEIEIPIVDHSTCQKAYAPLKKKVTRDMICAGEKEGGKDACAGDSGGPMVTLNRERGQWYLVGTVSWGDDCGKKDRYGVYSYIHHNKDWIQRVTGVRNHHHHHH
- experiment_summary: cell-based or functional assay
Bridge positions count the residues as written; N and C are the ends. Square brackets hold non-standard residues; d marks the D form. Ends that are not written are not given here. tBuAla = CC(C)(C)C[C@H](N)C(=O)O; Pen = CC(C)(S)[C@H](N)C(=O)O; Nva = CCC[C@H](N)C(=O)O
outcome_measure: human MASP1 IC50

Lookup: Given A[Nva]CSRS[tBuAla]PPI[Pen]IPD-NH2 (disulfide 3-11; N-terminus assumed; SMILES CCC[C@H](NC(=O)[C@H](C)N)C(=O)N[C@H]1CSSC(C)(C)[C@@H](C(=O)N[C@H](C(=O)N2CCC[C@H]2C(=O)N[C@@H](CC(=O)O)C(N)=O)[C@@H](C)CC)NC(=O)[C@H]([C@@H](C)CC)NC(=O)[C@@H]2CCCN2C(=O)[C@@H]2CCCN2C(=O)[C@H](CC(C)(C)C)NC(=O)[C@H](CO)NC(=O)[C@H](CCCNC(=N)N)NC(=O)[C@H](CO)NC1=O) [A-(Nva)-C+SRS-((tBu)A)-PPI-(Pen)+IPD-NH2] , respond with its human MASP1 IC50.
Found: 5.2 nM
